# Tested on: U-2932
# experiment-description: growth inhibition by drug plus 177Lu-lilotomab satetraxetan (1 - RLU/untreated control) (fraction); higher = stronger inhibition
# test-parameters: 1000 nM; time (day): 5; 177Lu-lilotomab satetraxetan 1 ug/ml
Give measured growth inhibition by drug plus 177Lu-lilotomab satetraxetan for each item. Keep answers brief.

Fill in growth inhibition by drug plus 177Lu-lilotomab satetraxetan for each of the 3 compounds listed.
1. Nc1nc(F)nc2c1ncn2[C@@H]1O[C@H](CO)[C@@H](O)[C@@H]1O
2. O=C(O)c1ccc2cc(-c3ccc(O)c(C45CC6CC(CC(C6)C4)C5)c3)ccc2c1
3. C=C1/C(=C\C=C2/CCC[C@]3(C)[C@@H]([C@H](C)/C=C/[C@H](C)C(C)C)CC[C@@H]23)C[C@@H](O)C[C@@H]1O

[0.131, 0.838, 0.182]

Could you tell me growth inhibition by drug plus 177Lu-lilotomab satetraxetan for each of these compounds? They are listed below.
1. CCCCc1nc2cc(/C=C/C(=O)NO)ccc2n1CCN(CC)CC
2. COc1ccccc1OCC(O)CN1CCN(CC(=O)Nc2c(C)cccc2C)CC1 (stereo not drawn) [Ranolazine (Ranexa)]
3. Oc1nc(-c2ccc(C(F)(F)F)cc2)nc2c1CSCC2
4. CCCCCOC(=O)Nc1nc(=O)n([C@@H]2O[C@H](C)[C@@H](O)[C@H]2O)cc1F
5. O=C(NCCCNc1nc(Nc2cccc(NC(=O)N3CCCC3)c2)ncc1I)c1cccs1

[0.973, -0.0142, 0.0547, -0.0339, 0.491]
